Recorded values, source PubChem BioAssay (NCI).

Tested on: UACC-257 melanoma
Experiment: NCI-60 one-dose screen, 48 h (100 = growth as untreated, 0 = no growth, -100 = all killed)
Settings: 10 µM unless noted
The panel holds about 83,000 compounds, 20% with a hit somewhere; the sample as a whole holds those more often. Calls of active or inactive are those of the source. How the source made its calls: active means growth percent below 10; inactive means the rest.
readout: growth

growth for "C=CC(=O)N1CCC(Oc2cc3c(Nc4ccc(Cl)c(Cl)c4F)ncnc3cc2OC)CC1" ? 24.4% (inactive)

Moving on to the next compound: "CC#CC(=O)N1CCC[C@H]1c1nc(-c2ccc(C(=O)Nc3ccccn3)cc2)c2c(N)nccn12" 57.7% (inactive)

Check "COc1cc2ncnc(Nc3cccc(Cl)c3F)c2cc1OC(=O)N1CCN(C)C[C@H]1C" too. 68.8% (inactive)

Request: "CC/C(=C(\c1ccc(OCCN2CCCCCCC2)cc1)c1ccc(OC(=O)C2CCCCC2)cc1)c1ccc(Cl)cc1" 87.3% (inactive)

Okay, and "Cc1cn(-c2cc(NC(=O)c3ccc(C)c(Nc4nccc(-c5cccnc5)n4)c3)cc(C(F)(F)F)c2)cn1" ? 34.5% (inactive)

And the next one, CC(=O)C1CC(C)CCC1C(C)C (centres undefined) ? 111% (inactive)

----------
Tested on: HS 578T breast
Experiment: NCI-60 one-dose screen, 48 h (100 = growth as untreated, 0 = no growth, -100 = all killed)
Settings: 10 µM
The panel holds about 83,000 compounds, 20% with a hit somewhere; the sample as a whole holds those more often.
readout: growth (%)
Number in %, nothing else.

compound	test system	unit name	growth
COc1cc2c3c(c1)nc(C)n3CCC2	HS 578T breast	%	105
CC1(C=O)NC(=O)NC1=O (stereo not given)	HS 578T breast	%	104
C=CCCCC(=O)CCC(=O)OCC1O[C@@H](O[C@@H]2C(O)[C@@H](OC(C)=O)C(C)O[C@H]2O[C@H](CC=C)CCCCC)C(O)[C@@H](OC(=O)/C(C)=C/C)[C@@H]1OC(=O)/C=C/c1ccccc1 (stereo not given in full)	HS 578T breast	%	35.9
O=C1CC(c2ccc(Cl)cc2)c2ncn(-c3cccc(Cl)c3)c2N1 (stereo not given)	HS 578T breast	%	52.8

Requested read-out growth, target or system HS 578T breast, entry CC(=O)OC(C(=O)c1ccccc1)c1ccccc1 (stereo not given) 125

----------
System: HS 578T breast
Experiment: NCI-60 one-dose screen, 48 h (100 = growth as untreated, 0 = no growth, -100 = all killed)
Conditions: 10 µM
About 83,000 compounds went through this panel and 20% of them were active in at least one assay; those are over-represented in the sample as a whole.
So basically every entry gets a class from its growth, ranges being bottom end (below 10%), midrange (10% to below 80%), top end (80% or more)

Completed entries (count: 3):
molecule	group
Cc1cc(C(O)CN(C)C)cc2c1ccc1cc(C(C)C)ccc12 (configuration not stated)	bottom end
CNC(=O)c1cc(Oc2cccc3nc(Nc4ccc(Cl)c(F)c4)ccc23)ccn1	midrange
N#Cc1ccc(-n2nnc3ccccc32)cc1C#N	top end

API: the following record is the query input.
Where would "CCN1CCN(c2cc(C)nc(N(CCCNc3ccnc4cc(Cl)ccc34)Cc3cccs3)n2)CC1" land among the classes by reported growth? bottom end

----------
Test system: SF-539 CNS
Assay: NCI-60 one-dose screen, 48 h (100 = growth as untreated, 0 = no growth, -100 = all killed)
Conditions: 10 µM unless noted
This is part of a sample that, as a whole, favours compounds with a hit. Of some 83,000 tested, about 20% had one in any assay. The source made the active and inactive calls. How the source made its calls: active means growth percent below 10; inactive means the rest.
Measured growth accompanies every entry in the list below.

Observe how each entry below is paired with its result.
compound	readout	readout value
CC(C)NC[C@@H](C(=O)N1CCN(c2ncnc3c2[C@H](C)C[C@H]3O)CC1)c1ccc(Cl)cc1	growth	2.83% (active)
CCc1ccc(C2=C(O)C(=O)C(c3ccc(CC)cc3)=C(O)C2=O)cc1	growth	-71.8% (active)
COc1cc2c(cc1OCCCCCCN1CCN(c3ncnc4ccccc34)CC1)N=CC1CCCN1C2=O (centres undefined)	growth	-56.3% (active)
COC[C@@H](C)n1c(C2CCOCC2)nc2c1C1C=C(OC)C(c3c(C)noc3C)=CC1N=C2 (some centres undefined)	growth	34.5% (inactive)
CCN1CCN(c2cc(C)nc(N(CCCNc3ccnc4cc(Cl)ccc34)Cc3ccc4c(c3)OCO4)n2)CC1	growth	-88.6% (active)
CCCCCCC1(/C=N/NC(N)=O)NC(=O)NC1=O (centres undefined)	growth	96.3% (inactive)

Recorded growth for "C=CC(=O)Nc1cc2c(Nc3ccc(F)c(Cl)c3)ncnc2cc1OCCCN1CCOCC1" , please? -24.4% (active)

Next compound: "O=[N+]([O-])c1cc(Br)cc2c1[nH]c1ccc(Br)cc12" 84.6% (inactive)

And "COc1cc2c3c(c1)nc(C)n3CCC2" ? 97.9% (inactive)

Further, for "C=C1[C@@H](O)C[C@H]2C(C)(C)C[C@H](Cl)C[C@]2(C)[C@H]1C[C@H](O)[C@H]1CC(=O)NC1=O" ? -35.4% (active)

Again, but for "COc1cc(NCCCN)c2ncccc2c1" 88.4% (inactive)
